B1: Histone-lysine N-methyltransferase SETD2, residues 2382 to 2430; numbered along this chain, Q9BYW2 (parent)
chain: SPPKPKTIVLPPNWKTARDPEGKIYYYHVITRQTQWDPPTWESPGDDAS

variants of: B1; experiment: abundance fitness (aPCA) (normalised: wild type 0, dead -1); higher = more abundant; growth selection in yeast, the domain comes from the species named; details: Homo sapiens
Attribute: abundance fitness
observation-type: abundance fitness

> print(dat)
    variant.spec  reported.measurement
 1          T40A                  0.15
 2          W36I                 0.139
 3          L10R                -0.647
 4           K6Y                -0.227
 5          Y26N                -0.517
 6          A48V                -0.164
 7          W41F                 0.334
 8          N13D                -0.059
 9          H28K                -0.971
10          D19S                -0.103
11          T34R                 0.109
12          V29N                -0.644
13          N13L                -0.039
14          L10F                -0.142
15           K4D                -0.927
16          S49T                -0.013
17          V29C                -0.074
18          W36Y                 0.203
19          K23G                -0.243
20           P5W                 -0.63
21           I8G                 0.037
22          K23V                -0.303
23          G45L                 0.076
24          W36S                 0.171
25          P11C                -0.694
26          Y27G                -0.747
27          P39M                -0.908
28          A17L                -0.212
29           I8Y                -0.108
30          S43Y                -0.263
31          R32A                -0.304
32          N13G                -0.191
33          K23Q                 -0.28
34          W41Q                 0.249
35           V9Q                -0.097
36          A17M                -0.024
37          Y27L                -0.534
38          I24Y                -0.336
39           T7F                 0.278
40          P39S                -0.719
41          P11V                -0.689
42          D19Q                -0.442
43          P44E                -0.096
44          Q33N                -0.117
45          Q35L                -0.364
46          G45D                -0.061
